Target: Caspase-6 (Homo sapiens, UniProt P55212)
Construct: mixing the compounds with the respective active caspases; purchased BioVision K156-100
Sequence (P55212 24-179 limits assumed): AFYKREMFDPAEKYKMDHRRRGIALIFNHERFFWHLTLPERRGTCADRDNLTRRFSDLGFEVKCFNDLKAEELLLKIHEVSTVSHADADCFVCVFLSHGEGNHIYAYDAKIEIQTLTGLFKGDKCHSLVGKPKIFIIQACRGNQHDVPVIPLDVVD
Sequence (P55212 194-293 limits assumed): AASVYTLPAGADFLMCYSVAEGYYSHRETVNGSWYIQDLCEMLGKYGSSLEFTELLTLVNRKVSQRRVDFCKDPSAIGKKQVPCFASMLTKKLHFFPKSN
Assay: Caspase-6 inhibitor screening assay (BioVision kit, VEID-AFC)
Assay type: biochemical
Conditions: read-out: % Inhibition at 100 uM Casp6
Counter-ions that a name gives are not always drawn.
property: inhibition at 100 µM (%)
Number only, in %; omit the unit.

CCOC(=O)/C=C/[C@H](CC(=O)O)NC(=O)[C@@H](NC(=O)[C@@H](NC(=O)[C@H](CC(=O)O)NC(=O)OCc1ccccc1)c1ccccc1)C(C)C [Compound 105, Z-Asp-Phg-Val-Asp Ethyl Vinyl Ester]	10
CC(C)[C@H](NC(=O)[C@H](Cc1cn(C)c2ccccc12)NC(=O)[C@H](CC(=O)O)NC(=O)OCc1ccccc1)C(=O)N[C@H](/C=C/S(C)(=O)=O)CC(=O)O [Compound 36]	19
CS(=O)(=O)/C=C/[C@H](CC(=O)O)NC(=O)[C@H](CCC(=O)O)NC(=O)c1ccc2ccccc2n1 [Compound 18]	8
CC(C)(C)OC(=O)CC[C@H](NC(=O)OC(C)(C)C)C(=O)N[C@H](/C=C/S(C)(=O)=O)CC(=O)OC(C)(C)C [Compound 21]	10
CC(C)[C@H](NC(=O)OCc1ccccc1)C(=O)N[C@H](/C=C(\Cl)S(C)(=O)=O)CC(=O)O [Compound 2]	19
CC(C)[C@H](NC(=O)[C@@H](NC(=O)[C@H](CC(=O)O)NC(=O)OCc1ccccc1)c1ccccc1)C(=O)N[C@H](/C=C/S(C)(=O)=O)CCC(=O)O [Compound 84, Z-Asp-Phg-Val-Glu methyl vinyl sulfone]	5
CC(C)[C@H](NC(=O)c1ccc2ccccc2n1)C(=O)N[C@H](/C=C/S(C)(=O)=O)CC(=O)O [Compound 16]	0

Field: next molecule
Send back Caspase-6 (Homo sapiens, UniProt P55212) inhibition at 100 µM of CCOC(=O)/C=C/[C@@H](N)CC(=O)O [Compound 44, Asp ethyl vinyl ester tosyl salt] only.
0

----------
Target: Caspase-5 (Homo sapiens, UniProt P51878)
Construct: mixing the compounds with the respective active caspases; purchased BioVision K155-100
Sequence (P51878 137-327 limits assumed): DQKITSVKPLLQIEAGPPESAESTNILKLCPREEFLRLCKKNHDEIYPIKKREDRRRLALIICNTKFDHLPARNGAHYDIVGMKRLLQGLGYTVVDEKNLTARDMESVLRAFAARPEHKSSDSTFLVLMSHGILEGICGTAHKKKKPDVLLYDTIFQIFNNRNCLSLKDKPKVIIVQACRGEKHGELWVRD
Sequence (P51878 347-434 limits assumed): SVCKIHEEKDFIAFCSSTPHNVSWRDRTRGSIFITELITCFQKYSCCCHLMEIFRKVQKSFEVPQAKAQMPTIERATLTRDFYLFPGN
Test: Caspase-5 inhibitor screening assay (BioVision kit, WEHD-AFC)
Assay type: biochemical
Conditions: read-out: IC50 Casp5
property: IC50 (µM)
Number only, in µM; omit the unit.

CCOC(=O)/C=C/[C@H](CC(=O)O)NC(=O)[C@@H](NC(=O)[C@H](CCC(=O)O)NC(=O)[C@@H](NC(=O)OCc1ccccc1)C(C)C)c1ccccc1	8.58
CC(C)(C)[C@H](NC(=O)c1ccc2ccccc2n1)C(=O)N1CC[C@@H]1C(=O)N[C@H](/C=C/S(C)(=O)=O)CC(=O)O	8.39

Field: next compound
State its IC50: CC(C)(C)[C@H](NC(=O)[C@H](CC(=O)O)NC(=O)OCc1ccccc1)C(=O)N1CCCC1C(=O)N[C@H](/C=C/S(C)(=O)=O)CC(=O)O (stereo in doubt)
9.88

----------
Molecular target: Caspase-3 (Homo sapiens, UniProt P42574)
Construct: mixing the compounds with the respective active caspases; purchased BioVision K153-100
Sequence (P42574 29-175 limits assumed): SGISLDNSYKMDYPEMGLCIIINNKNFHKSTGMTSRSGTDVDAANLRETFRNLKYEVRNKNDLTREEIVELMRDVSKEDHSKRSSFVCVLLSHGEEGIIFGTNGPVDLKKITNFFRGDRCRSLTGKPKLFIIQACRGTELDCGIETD
Sequence (P42574 176-277 limits assumed): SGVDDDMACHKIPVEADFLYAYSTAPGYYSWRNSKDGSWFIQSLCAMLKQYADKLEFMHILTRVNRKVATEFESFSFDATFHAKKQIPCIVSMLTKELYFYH
Experiment: Caspase-3 inhibitor screening assay (BioVision kit, DEVD-AFC)
Assay type: biochemical
Details: read-out: % Inhibition at 100 uM Casp3
Items are presented alongside their recorded inhibition at 100 µM.
Number only, in %; omit the unit.

Reference set (4 entries):
CC(C)(C)[C@H](NC(=O)c1ccc2ccccc2n1)C(=O)N1CC[C@@H]1C(=O)N[C@H](/C=C/S(C)(=O)=O)CC(=O)O	5
CC(C)[C@H](NC(=O)OCc1ccccc1)C(=O)N[C@H](/C=C/S(C)(=O)=O)CC(=O)O	5
CC(C)(C)[C@H](NC(=O)c1ccc2ncccc2n1)C(=O)N1CCCC1C(=O)N[C@H](/C=C/S(C)(=O)=O)CC(=O)O (stereo in doubt)	5
CC(C)(C)[C@H](NC(=O)c1ccc2ncccc2c1)C(=O)N1CCCC1C(=O)N[C@H](/C=C/S(C)(=O)=O)CC(=O)O (stereo in doubt)	16

State its inhibition at 100 µM: CS(=O)(=O)/C=C/[C@H](CC(=O)O)NC(=O)[C@@H](N)CCC(=O)O
0

State its inhibition at 100 µM: CC(C)[C@H](NC(=O)OCc1ccccc1)C(=O)N[C@H](/C=C(\Cl)S(C)(=O)=O)CC(=O)O
39

----------
Biological target: Caspase-7 (Homo sapiens)
Construct: mixing the compounds with the respective active caspases; purchased BioVision K157-100
Sequence (P55210 24-198 limits assumed): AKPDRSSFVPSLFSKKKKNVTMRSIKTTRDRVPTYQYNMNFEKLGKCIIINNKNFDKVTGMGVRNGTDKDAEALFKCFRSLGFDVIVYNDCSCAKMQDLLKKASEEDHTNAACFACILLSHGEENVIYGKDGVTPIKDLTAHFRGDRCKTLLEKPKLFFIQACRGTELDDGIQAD
Sequence (P55210 207-303 limits assumed): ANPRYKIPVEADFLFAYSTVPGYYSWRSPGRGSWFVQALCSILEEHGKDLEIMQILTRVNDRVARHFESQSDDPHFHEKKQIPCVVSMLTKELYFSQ
Assay: Caspase-7 inhibitor screening assay (BioVision kit, DEVD-AFC)
Type: biochemical
Conditions: 10 uM; read-out: % Inhibition at 10 uM Casp7
Items are presented alongside their recorded inhibition at 10 µM.
The reply should read as a number followed by its unit.

CC(C)(C)OC(=O)CC[C@H](NC(=O)OC(C)(C)C)C(=O)N[C@H](/C=C/S(C)(=O)=O)CC(=O)OC(C)(C)C	0%

State its inhibition at 10 µM: CC(C)(C)[C@H](NC(=O)c1ccc2ncccc2n1)C(=O)N1CCCC1C(=O)N[C@H](/C=C/S(C)(=O)=O)CC(=O)O (stereo in doubt)
0%

State its inhibition at 10 µM: CC(C)[C@H](NC(=O)[C@@H](NC(=O)[C@H](CC(=O)O)NC(=O)OCc1ccccc1)c1ccccc1)C(=O)N[C@H](/C=C/S(C)(=O)=O)CCC(=O)O
9%

State its inhibition at 10 µM: CS(=O)(=O)/C=C/[C@H](CC(=O)O)NC(=O)C1CCCN1C(=O)[C@@H](NC(=O)[C@H](CC(=O)O)NC(=O)OCc1ccccc1)C1CC1 (stereo in doubt)
87%

State its inhibition at 10 µM: CC(C)(C)[C@H](NC(=O)c1ccc(N)c(Cl)c1)C(=O)N1CCCC1C(=O)N[C@H](/C=C/S(C)(=O)=O)CC(=O)O (stereo in doubt)
13%

State its inhibition at 10 µM: CCOC(=O)/C=C/[C@H](CC(=O)O)NC(=O)[C@@H](NC(=O)[C@@H](NC(=O)[C@H](CC(=O)O)NC(=O)OCc1ccccc1)c1ccccc1)C(C)C
99%

----------
Target: Caspase-8 (Homo sapiens, UniProt Q14790)
Construct: mixing the compounds with the respective active caspases; purchased BioVision K158-100
Sequence (Q14790 217-374 limits assumed): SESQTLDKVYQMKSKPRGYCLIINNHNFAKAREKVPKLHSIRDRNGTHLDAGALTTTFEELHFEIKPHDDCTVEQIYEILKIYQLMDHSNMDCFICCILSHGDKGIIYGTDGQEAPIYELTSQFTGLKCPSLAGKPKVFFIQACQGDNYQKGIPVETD
Sequence (Q14790 385-479 limits assumed): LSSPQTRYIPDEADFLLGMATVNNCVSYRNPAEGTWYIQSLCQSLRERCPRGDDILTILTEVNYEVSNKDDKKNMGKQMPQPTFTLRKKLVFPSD
Assay: Caspase-8 inhibitor screening assay (BioVision kit, IETD-AFC)
Assay type: biochemical
Conditions: 10 uM; read-out: % Inhibition at 10 uM Casp8
Items are presented alongside their recorded inhibition at 10 µM.
The reply should read as a number followed by its unit.

CC(C)[C@H](NC(=O)OCc1ccccc1)C(=O)N[C@H](/C=C/S(C)(=O)=O)CC(=O)O [Compound 3, Z-Val-Asp methyl vinyl sulfone]	0%
CS(=O)(=O)/C=C/[C@H](CC(=O)O)NC(=O)[C@@H](N)CCC(=O)O [Compound 22, Glu-Asp methylsulfone]	3%

State its inhibition at 10 µM: CC(C)[C@H](NC(=O)[C@@H](N)Cc1ccc(O)cc1)C(=O)N[C@@H](C)C(=O)N[C@H](/C=C/S(C)(=O)=O)CC(=O)O [Compound 42, Tyr-Val-Ala-Asp methyl vinyl sulfone]
12%

----------
Items are presented alongside their recorded inhibition at 100 µM.
Target: Caspase-1 (Homo sapiens)
Construct: mixing the compounds with the respective active caspases; purchased BioVision K151-100
Sequence (P29466 120-297 limits assumed): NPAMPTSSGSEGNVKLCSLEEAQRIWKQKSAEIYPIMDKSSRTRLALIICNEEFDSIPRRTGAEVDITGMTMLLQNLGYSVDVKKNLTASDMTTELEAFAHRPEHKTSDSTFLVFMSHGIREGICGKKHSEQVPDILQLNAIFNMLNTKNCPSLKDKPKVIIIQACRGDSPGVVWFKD
Sequence (P29466 317-404 limits assumed): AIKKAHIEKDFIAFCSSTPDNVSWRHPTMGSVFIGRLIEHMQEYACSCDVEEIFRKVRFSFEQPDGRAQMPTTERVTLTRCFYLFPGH
Experiment: Caspase-1 inhibitor screening assay (BioVision kit, YVAD-AFC)
Assay type: biochemical
Conditions: read-out: % Inhibition at 100 uM Casp1
Number only, in %; omit the unit.

Reference set (2 entries):
CCOC(=O)/C=C/[C@H](CC(=O)O)NC(=O)[C@H]1CCCN1C(=O)[C@@H](NC(=O)c1ccc2ccccc2n1)C(C)(C)C	100
CC(C)[C@H](NC(=O)[C@H](Cc1cn(C)c2ccccc12)NC(=O)[C@H](CC(=O)O)NC(=O)OCc1ccccc1)C(=O)N[C@H](/C=C/S(C)(=O)=O)CC(=O)O	94

State its inhibition at 100 µM: CCC(C)[C@H](NC(=O)[C@H](CCC(=O)O)NC(=O)[C@@H](NC(=O)OCc1ccccc1)C(C)C)C(=O)N[C@H](/C=C/S(C)(=O)=O)CC(=O)O (stereo partly drawn)
97

Every entry's value here was drawn from patent US10975119B2.
